Values compiled from patent US20180273538A1.

// values below are reported log10(IC50)
target: His-TEV-DYRK1A Kinase domain (aa127-485) (Homo sapiens); construct: His-TEV-DYRK1A Kinase domain (aa127-485); His (N); TEV cleavage site (N); test: Kinase ADP assay (ADP Hunter Plus); type: biochemical
measured metric: log10(IC50) (log10 of the value in µM)

| smiles code | measured |
| --- | --- |
| C#Cc1nc(-c2ccc3c(c2)OCO3)c2c(-c3cc(N)nc(N)c3)c[nH]c2n1 | -1.62 |
| COc1cccc(-c2nc(C)nc3[nH]cc(-c4ccnc(N)c4)c23)c1 | -1.82 |
| Cc1nc(-c2cc3ccccc3s2)c2c(-c3ccnc(N)n3)c[nH]c2n1 | -2.00 |
| Cc1nc(NCc2cccc(F)c2F)c2c(-c3ccnc(N)c3)c[nH]c2n1 | -1.85 |
| Cc1nc(NCc2ccccc2)c2c(-c3ccncc3)c[nH]c2n1 | -0.63 |
